System: neonatal cardiomyocytes
Assay protocol: Myocyte calcium-contractility assay (cardiomyocyte beating anoxia assay)
Format: cell-based, rat
Test conditions: 16 hr anoxia, 2 hr reoxygenation
Reported property: Dose for Max. Activity (µg/mL)
Numbers only, in µg/mL.

Take a look at these entries with their results.
INPUT: // map CC1=C(CC/C(C)=C/Cc2cc(C(=O)O)ccc2O)[C@]2(C)CCCC(C)(C)[C@H]2CC1 [(−)-subersic acid (1)] to recorded Dose for Max. Activity (system: neonatal cardiomyocytes)
OUTPUT: 25

INPUT: // map CC(C)=CCC[C@@]1(C)CCC[C@]2(C)[C@@H](Cc3cc(C(=O)O)ccc3O)C(C)=CC[C@@H]12 [(−)-jaspic acid (4)] to recorded Dose for Max. Activity (system: neonatal cardiomyocytes)
OUTPUT: 3

INPUT: // map CC1=CCC[C@H](C)[C@]1(C)CC/C(C)=C/CCc1ccoc1 [(+)-subersin (2)] to recorded Dose for Max. Activity (system: neonatal cardiomyocytes)
OUTPUT: 8

Shift focus to the following entry.
INPUT: // map CC(C)=CCC/C(C)=C/CCC1=CC(O)OC1=O (racemic) to recorded Dose for Max. Activity (system: neonatal cardiomyocytes)
OUTPUT: 100
